self-cleavage reference
B1: Hairpin Ribozyme (parent)
chain: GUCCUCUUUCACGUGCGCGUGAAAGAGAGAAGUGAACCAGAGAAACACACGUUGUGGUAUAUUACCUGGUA

Variants of: B1
methodSummary: self-cleavage, relative activity (ratio to wild type); higher = more cleavage; co-transcriptional

[
  {
    "sequenceChain": "GUCCUCUUUCACGGGCGCGUGAAAGAGAGAAGUGAACCAGAGAAACACACGUUGUGGUAUUUUACCUGGUA [U14G A61U]",
    "self-cleavage": 0.2
  },
  {
    "sequenceChain": "GUCCUCUUUCACGUGCGCGUGAAAGAGAGAAGUGAACCAGAGAAACCCACGUUGUGGUAUAUUAGCUGGUA [A47C C65G]",
    "self-cleavage": 0.203
  },
  {
    "sequenceChain": "GUCCUCUUUCACGUGCGCGAGAAAGAGACAAGUGAACCAGAGAAACACACGUUGUGGUAUAUUACCUGGUA [U20A G29C]",
    "self-cleavage": 0.203
  },
  {
    "sequenceChain": "GUCCUCAUUCACGUGCGCGUGAAAGAGAGAAGUGAACCAGAGAAACACGCGUUGUGGUAUAUUACCUGGUA [U7A A49G]",
    "self-cleavage": 0.49
  },
  {
    "sequenceChain": "GUCCUCUUUCACGUGCGCGUGAAAGAGAGAAGUGAACCAGAGAAACACACCUUGUAGUAUAUUACCUGGUA [G51C G56A]",
    "self-cleavage": 0.197
  }
]
